Listed here: items and their measured protein stability index.
B1: KLHL14 (parent)
chain: WLYCYDPVMDVWARKQDMNTKRAI

Variants of: B1
Measurement notes: protein stability index of a GFP-peptide fusion (GPS, HEK-293T) (PSI 1-6); higher = more stable;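 also: lentivirally expressed fusions sorted by FACS into six bins by GFP to DsRed ratio, PSI derived from sequencing read proportions per bin multiplied by bin number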
Experimental parameters: c terminus: a fixed tail appended

- Alteration: "C4E"
  protein stability index: 2.41
- Alteration: "C4N"
  protein stability index: 2.5
- Alteration: "I24E"
  protein stability index: 2.31
- Alteration: "Y5P"
  protein stability index: 2.9
- Alteration: "T20W"
  protein stability index: 2.34
- Alteration: "V11N"
  protein stability index: 2.21
- Alteration: "Q16E"
  protein stability index: 2.4
- Alteration: "C4W"
  protein stability index: 2.35
- Alteration: "C4I"
  protein stability index: 1.96
- Alteration: "W12P"
  protein stability index: 1.76
- Alteration: "L2V"
  protein stability index: 2.16
- Alteration: "K15L"
  protein stability index: 2.21
- Alteration: "C4A"
  protein stability index: 2.34
- Alteration: "V8S"
  protein stability index: 1.89
- Alteration: "D17Y"
  protein stability index: 1.67
- Alteration: "M9D"
  protein stability index: 1.92
- Alteration: "D17M"
  protein stability index: 2.2
- Alteration: "V11K"
  protein stability index: 1.95
- Alteration: "N19H"
  protein stability index: 1.57
- Alteration: "M9Q"
  protein stability index: 2.6
- Alteration: "N19F"
  protein stability index: 1.52
- Alteration: "W12S"
  protein stability index: 1.5
- Alteration: "K15V"
  protein stability index: 1.89
- Alteration: "C4H"
  protein stability index: 2.6
- Alteration: "K21T"
  protein stability index: 1.83
- Alteration: "M18C"
  protein stability index: 1.86
- Alteration: "R22V"
  protein stability index: 1.72
- Alteration: "P7D"
  protein stability index: 2.28
- Alteration: "W1H"
  protein stability index: 3.4
- Alteration: "D17V"
  protein stability index: 2.06
- Alteration: "K21D"
  protein stability index: 2.34
- Alteration: "V11H"
  protein stability index: 1.61
- Alteration: "W12L"
  protein stability index: 2.07
- Alteration: "P7C"
  protein stability index: 2.33
- Alteration: "Y5H"
  protein stability index: 1.91
- Alteration: "K15Q"
  protein stability index: 1.95
- Alteration: "T20Y"
  protein stability index: 2.02
- Alteration: "P7V"
  protein stability index: 2.08
- Alteration: "Y5V"
  protein stability index: 1.98
- Alteration: "Y5R"
  protein stability index: 2.26
- Alteration: "R22A"
  protein stability index: 2.32
- Alteration: "D17H"
  protein stability index: 2.21
- Alteration: "Y3K"
  protein stability index: 2.09
- Alteration: "A13I"
  protein stability index: 2.18
- Alteration: "Y3C"
  protein stability index: 2.64
- Alteration: "D17I"
  protein stability index: 1.94
